- experimental system: human Claudin-6 (CLDN6) (human) (UniProt P56747)
- method summary: FACS, 0.3 ug Ab, ARK2 cells (2nd Ab only 1351.21)
The reader will find reported FACS fluorescence values listed item by item below.
The answer should be written as a number, with no unit following it.

Reference set (5 entries):
AB4-6 (antibody, V domains shown, humanized) VH: QVQLVQSGAEVKKPGASVKMSCKASGYTFTSYTMHWIRQAPGQGLEWIGYINPSSTYTHYAQKFQGRATLTADKSTSTAYMELSSLRSEDTAVYYCSRGELGGFAYWGQGTLVTVSS VL: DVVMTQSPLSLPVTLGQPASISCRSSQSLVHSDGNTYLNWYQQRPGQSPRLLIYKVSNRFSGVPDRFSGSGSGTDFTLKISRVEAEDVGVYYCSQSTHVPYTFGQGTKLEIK
3300
AB1-7 (antibody, V domains shown, humanized) VH: QVQLVQSGAEVKKPGASVKMSCKASGYTFTTYTMHWVRQAPGQGLEWIGFINPSSGYTDYAQKFQGRVTLTADTSTSTVYMELSSLRSEDTAVYYCANGDYYVAYWGQGTLVTVSS VL: DIQLTQSPSSLSASVGDRVTMTCTASSSVSSTYFHWYQQKPGKAPKLLIYSTSNLASGVPSRFSGSGSGTDYTLTISSMQPEDAATYYCHQYHRSPLTFGQGTKLEIK
4440
AB3-7 (antibody, V domains shown, humanized; also called AB23; humanized AB3-7) VH: EVQLLESGGGLVQPGGSMRLSCAASGFTFSNYWMNWVRQAPGKGLEWVAQIRLKSDNYATHYADSVKGRFTISRDDSKNTVYLQMNSLRAEDTGVYYCNDGPPSGSWGQGTLLTVSS VL: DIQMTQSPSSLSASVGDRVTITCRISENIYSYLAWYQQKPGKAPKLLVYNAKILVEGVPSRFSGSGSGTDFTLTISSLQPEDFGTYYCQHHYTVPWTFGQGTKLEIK
36000
AB11-chim (antibody, V domains shown) VH: DVQLVESGGGLVQPRGSRKLSCAASGFTFSSFGMHWVRQAPEKGLEWVAYISSDSRTIYYADTVKGRFTISRDNPTNTLFLQMTSLRSEDTAMYYCARDYGRTYEAYWGQGTLVTVSA VL: DIVLTQSPASLAVSLGQRATISCRASKSVSTSGYSYIHWYQQKPGQPPKLLIYLASNLESGVPARFSGSGSGTDFTLNIHPVEEEDAATYYCQHSRELPLTFGAGTKLELK
1320
AB3-chim (antibody, V domains shown) VH: EVKLEESGGGLVQPGGSMKLSCVASGFTFSNYWMNWVRQSPEKGLEWVAQIRLKSDNYATHYAESVKGRFTISRDDSKRSVYLQMNNLRAEDTGTYYCNDGPPSGCWGQGTTLIVSS VL: DIQMTQSPASLSASVGETVTITCRISENIYSYLAWYQQKQGKSPQLLVYNAKILVEGVPSRFSGSGSGTQFSLKINSLQPEDFGNYYCQHHYTVPWTFGGGTKLEIK
17100

Req: Would you mind telling me what FACS fluorescence value was observed for AB9-4 (antibody, V domains shown, humanized) VH: QVQLVQSGAEVKKPGASVKMSCKASGYRFTDYNMHWVRQAPGQGLEWIGYINPNNGGTNYAQKFQGRATLTVDTSTSTAYMELSSLRSEDTAVYYCARDYLYFFDCWGQGTLLTVSS VL: DIQMTQSPSSLSASVGDRVTITCRASQTIGTWLAWYQQKPGKAPKLLIYAAASLADGVPSRFSGSGSGTDFTFTISSLQPEDFVTYYCQQLYSIPRTFGQGTKLEIK ?
Resp: 1120

Req: Please look up its FACS fluorescence: AB4-10 (antibody, V domains shown, humanized) VH: QVQLVQSGAEVKKPGASVKMSCKASGYTFTSYTMHWIRQAPGQGQEWIGYINPSSTYTHYIKKFKDRATLTADTSTSTAYMELSSLRSEDTAVYYCSRGELGGFAYWGQGTLVTVSS VL: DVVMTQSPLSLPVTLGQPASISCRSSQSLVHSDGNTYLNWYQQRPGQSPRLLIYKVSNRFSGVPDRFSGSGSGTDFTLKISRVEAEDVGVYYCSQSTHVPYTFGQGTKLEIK
Resp: 7210

Req: # query: FACS fluorescence of entry AB9-3 (antibody, V domains shown) VH: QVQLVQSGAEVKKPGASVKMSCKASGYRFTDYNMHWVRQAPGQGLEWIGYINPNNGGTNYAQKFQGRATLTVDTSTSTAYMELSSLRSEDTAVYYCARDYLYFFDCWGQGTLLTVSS VL: DIQMTQSPSSLSASVGDRVTITCLASQTIGTWLAWYQQKPGKAPKLLIYAAASLADGVPSRFSGSGSGTDFTFTISSLQPEDFVTYYCQQLYSIPRTFGQGTKLEIK
Resp: 1140

Req: Please look up its FACS fluorescence: AB1-4 (antibody, V domains shown, humanized) VH: QVQLVQSGAEVKKPGASVKVSCKASGYTFTTYTMHWVRQAPGQGLEWMGFINPSSGYTDYAQKFQGRVTMTADTSTSTVYMELSSLRSEDTAVYYCANGDYYVAYWGQGTLVTVSS VL: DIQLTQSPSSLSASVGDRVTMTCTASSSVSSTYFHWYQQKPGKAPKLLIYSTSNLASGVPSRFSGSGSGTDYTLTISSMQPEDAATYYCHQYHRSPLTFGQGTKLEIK
Resp: 3640

Req: // returns reported FACS fluorescence for input AB4-8 (antibody, V domains shown, humanized) VH: QVQLVQSGAEVKKPGASVKVSCKASGYTFTSYTMHWVRQAPGQGLEWMGYINPSSTYTHYIKKFKDRVTMTADTSTSTVYMELSSLRSEDTAVYYCSRGELGGFAYWGQGTLVTVSS VL: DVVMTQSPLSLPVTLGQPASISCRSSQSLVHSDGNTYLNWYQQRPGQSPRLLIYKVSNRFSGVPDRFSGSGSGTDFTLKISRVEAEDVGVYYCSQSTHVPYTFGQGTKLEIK
Resp: 3120

Reference source: patent US20230049752A1
